B1: SNX8 (parent)
chain: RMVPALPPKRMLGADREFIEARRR

Variants of: B1
Test: protein stability index of a GFP-peptide fusion (GPS, HEK-293T) (PSI 1-6); higher = more stable;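 further: lentivirally expressed fusions sorted by FACS into six bins by GFP to DsRed ratio, PSI derived from sequencing read proportions per bin multiplied by bin number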
Details: c terminus: a fixed tail appended
variants and their reported protein stability index
Respond using a number only.

variantSpec: A21C
recordedMeasurement: 4.08
--
variantSpec: D15K
recordedMeasurement: 3.16
--
variantSpec: G13S
recordedMeasurement: 3.54
--
variantSpec: A21R
recordedMeasurement: 3.56
--
variantSpec: P7R
recordedMeasurement: 3.76

// protein stability index lookup, key: V3Y
2.96

What do you have for K9G ?
3.6

What do you have for M11I ?
4.78

What do you have for I19T ?
4.39

What do you have for R16N ?
4.39

What do you have for P4R ?
4.13
